# credit: BindingDB's records for doi:10.1016/s0968-0896(00)00026-2

target.of.assay: Carbonic anhydrase 2 (Homo sapiens, UniProt P00918)
protocol.description: In vitro binding of inhibitor to hCA-II
measurement.label: pKi
Quick note: pKi values are minus log10 of concentrations in mol/L.

Illustrative cases are given below, each with its answer.
structure.as.smiles	target.of.assay	reported.value
NS(=O)(=O)c1cc2c(s1)S(=O)(=O)N(CCCO)C(CN1CCOCC1)=C2	Carbonic anhydrase 2 (Homo sapiens, UniProt P00918)	9.70
NS(=O)(=O)c1cc2c(s1)S(=O)(=O)N(CC1CC1)C(CN1CCOCC1)=C2	Carbonic anhydrase 2 (Homo sapiens, UniProt P00918)	9.52

Switching to the query record.
// fetch pKi given entry C#CCNCC1=Cc2cc(S(N)(=O)=O)sc2S(=O)(=O)N1c1cccc(O)c1
9.80

====

Catalogue of pKi readings, one per entry.
target.of.assay: UniProtKB P00918
protocol.description: In vitro binding of inhibitor to hCA-II
condition.context: pH 7.4; 37 °C
Description: Inhibitor binding to CA II was determined using a fluorescence competition assay. Displacement of dansylamide and binding of the inhibitor was determined by measuring and comparing the average fluorescence intensities of the treated versus control reactions. Binding constants were estimated from a Dixon plot of the data (reciprocal of the average fluorescence intensity versus inhibitor concentration)
Quick note: pKi values are minus log10 of concentrations in mol/L.

structure.as.smiles	pKi
CCN1C(CN(CCOC)CCOC)=Cc2cc(S(N)(=O)=O)sc2S1(=O)=O	9.68

// fetch pKi given entry COc1cccc(N2C(CN3CCOCC3)=Cc3cc(S(N)(=O)=O)sc3S2(=O)=O)c1
9.82

// fetch pKi given entry CN1C(CN2CCOCC2)=Cc2cc(S(N)(=O)=O)sc2S1(=O)=O
9.59

// fetch pKi given entry COCCN(C)CC1=Cc2cc(S(N)(=O)=O)sc2S(=O)(=O)N1C
9.82

====

target.of.assay: Carbonic anhydrase 2 (Homo sapiens, UniProt P00918)
protocol.description: In vitro binding of inhibitor to hCA-II
Catalogue of Ki readings, one per entry.
Give your result in nM as a bare value.

Illustrative cases are given below, each with its answer.
structure.as.smiles	Ki, nM
NS(=O)(=O)c1cc2c(s1)S(=O)(=O)N(C1CCCCC1)C(CN1CCOCC1)=C2	0.31
CCCN1C(CN(CCOC)CCOC)=Cc2cc(S(N)(=O)=O)sc2S1(=O)=O	0.15
COc1ccc(CN2C(CN3CCOCC3)=Cc3cc(S(N)(=O)=O)sc3S2(=O)=O)cc1	0.11

State Ki (Carbonic anhydrase 2 (Homo sapiens, UniProt P00918)) of CCN1C(CN(CCO)CCO)=Cc2cc(S(N)(=O)=O)sc2S1(=O)=O .
0.33

State Ki (Carbonic anhydrase 2 (Homo sapiens, UniProt P00918)) of NS(=O)(=O)c1cc2c(s1)S(=O)(=O)N(c1ccc(N3CCOCC3)cc1)C(CN1CCOCC1)=C2 .
0.12

State Ki (Carbonic anhydrase 2 (Homo sapiens, UniProt P00918)) of CN1C(CN2CCOCC2)=Cc2sc(S(N)(=O)=O)cc2S1(=O)=O .
0.21

State Ki (Carbonic anhydrase 2 (Homo sapiens, UniProt P00918)) of CCCN1C(CN2CCOCC2)=Cc2cc(S(N)(=O)=O)sc2S1(=O)=O .
0.27

State Ki (Carbonic anhydrase 2 (Homo sapiens, UniProt P00918)) of COc1cccc(N2C(CNCCO)=Cc3cc(S(N)(=O)=O)sc3S2(=O)=O)c1 .
0.11

State Ki (Carbonic anhydrase 2 (Homo sapiens, UniProt P00918)) of COc1ccc(N2C(CN3CCOCC3)=Cc3cc(S(N)(=O)=O)sc3S2(=O)=O)cc1OC .
0.08

State Ki (Carbonic anhydrase 2 (Homo sapiens, UniProt P00918)) of C#CCNCC1=Cc2cc(S(N)(=O)=O)sc2S(=O)(=O)N1C(C)C .
0.47

State Ki (Carbonic anhydrase 2 (Homo sapiens, UniProt P00918)) of COCCCN1C(CN2CCOCC2)=Cc2cc(S(N)(=O)=O)sc2S1(=O)=O .
0.25

State Ki (Carbonic anhydrase 2 (Homo sapiens, UniProt P00918)) of COCCN1C(CN2CCOCC2)=Cc2cc(S(N)(=O)=O)sc2S1(=O)=O .
0.22

State Ki (Carbonic anhydrase 2 (Homo sapiens, UniProt P00918)) of COCCCN1C(Cn2ccnc2)=Cc2cc(S(N)(=O)=O)sc2S1(=O)=O .
0.12

State Ki (Carbonic anhydrase 2 (Homo sapiens, UniProt P00918)) of COCCCN1C(CNC2CC2)=Cc2cc(S(N)(=O)=O)sc2S1(=O)=O .
0.26

State Ki (Carbonic anhydrase 2 (Homo sapiens, UniProt P00918)) of CC(C)N1C(CN2CCOCC2)=Cc2cc(S(N)(=O)=O)sc2S1(=O)=O .
0.33

====

target.of.assay: Carbonic anhydrase 2 (Homo sapiens, UniProt P00918)
protocol.description: In vitro binding of inhibitor to hCA-II
condition.context: pH 7.4; 37 °C
measurement.label: Ki (nM)
Give your result in nM as a bare value.

Illustrative cases are given below, each with its answer.
structure.as.smiles	Ki, nM
CC(=O)N1CCN(CCN2C=Cc3cc(S(N)(=O)=O)sc3S2(=O)=O)CC1	0.25
NS(=O)(=O)c1cc2c(s1)S(=O)(=O)N(CCN1CCOCC1)C=C2	0.32
CCN1C(CN2CCOCC2)=Cc2cc(S(N)(=O)=O)sc2S1(=O)=O	0.21
COCCN(CCOC)CCN1C=Cc2cc(S(N)(=O)=O)sc2S1(=O)=O	0.34

Switching to the query record.
State Ki (Carbonic anhydrase 2 (Homo sapiens, UniProt P00918)) of C=CCN(CCOC)CC1=Cc2cc(S(N)(=O)=O)sc2S(=O)(=O)N1C .
0.1

====

target.of.assay: Carbonic anhydrase 2 (Homo sapiens)
protocol.description: In vitro binding of inhibitor to hCA-II
condition.context: pH 7.4; 37 °C
measurement.label: Ki (nM)
Give your result in nM as a bare value.

Illustrative cases are given below, each with its answer.
structure.as.smiles	target.of.assay	Ki (nM)
NS(=O)(=O)c1cc2c(s1)S(=O)(=O)N(C/C=C/CN1CCOCC1)C=C2	Carbonic anhydrase 2 (Homo sapiens)	0.24
COCCCN(CCOC)CC1=Cc2cc(S(N)(=O)=O)sc2S(=O)(=O)N1C	Carbonic anhydrase 2 (Homo sapiens)	0.08

Switching to the query record.
State Ki (Carbonic anhydrase 2 (Homo sapiens)) of CCCNCCN1C=Cc2cc(S(N)(=O)=O)sc2S1(=O)=O .
0.52

====

target.of.assay: Carbonic anhydrase 2 (Homo sapiens, UniProt P00918)
protocol.description: In vitro binding of inhibitor to hCA-II
measurement.label: pKi
Quick note: pKi values are minus log10 of concentrations in mol/L.

// fetch pKi given entry COCCN(CCOC)CC1=Cc2cc(S(N)(=O)=O)sc2S(=O)(=O)N1CCOC
9.68

// fetch pKi given entry C#CCNCC1=Cc2cc(S(N)(=O)=O)sc2S(=O)(=O)N1CCC
10.00

// fetch pKi given entry C=CCN1C(CN2CCOCC2)=Cc2cc(S(N)(=O)=O)sc2S1(=O)=O
9.80
